- System: 292921-168-R-J2-PDC KRAS tumor spheroid viability
- MEASUREMENT_DESCRIPTION: Anticancer human tumor 292921-168-R-J2-PDC patient-derived pancreatic carcinoma cell line growth inhibition [KRAS2]; active means viability on the fitted dose curve at most 10% of control; inactive means the rest
- CONDITION_SUMMARY: second compound 3.16 µM; first compound 10 µM; spheroids with HUVEC and MSC
- Excerpt: Multicellular complex tumor spheroid response to RAS pathway inhibitors in combination with a targeted agents in patient-derived cell lines with oncogenic KRAS variants from multiple cancer types A high-throughput screen of multi-cell type tumor spheroids was designed to identify active combinations of targeted small molecules and KRAS pathway inhibitors. […] Compounds. […] If the clinical Cmax for an agent had not been determined, the highest concentration tested was 10 microM. […]
// one of active, inactive, no free text

Ask | // param item: CC1OCC2(CCN(c3cnc(Sc4ccnc(N)c4Cl)c(N)n3)CC2)C1N (stereo not given) + C=CC(=O)N1CCN(c2nc(=O)n(-c3c(C)ccnc3C(C)C)c3nc(-c4c(O)cccc4F)c(F)cc23)C(C)C1 ; yields the recorded call
Reply | inactive

Ask | // param item: CC1(C)CCC(CN2CCN(c3ccc(C(=O)NS(=O)(=O)c4ccc(NCC5CCOCC5)c([N+](=O)[O-])c4)c(Oc4cnc5[nH]ccc5c4)c3)CC2)=C(c2ccc(Cl)cc2)C1 + CC1OCC2(CCN(c3cnc(Sc4ccnc(N)c4Cl)c(N)n3)CC2)C1N ; yields the recorded call
Reply | active

Ask | // param item: CC(C)NCC(C(=O)N1CCN(c2ncnc3c2C(C)CC3O)CC1)c1ccc(Cl)cc1 (stereo not given) + C=CC(=O)N1CCN(c2nc(=O)n(-c3c(C)ccnc3C(C)C)c3nc(-c4c(O)cccc4F)c(F)cc23)C(C)C1 ; yields the recorded call
Reply | inactive

Ask | // param item: COC(=O)c1ccc2c(C(=Nc3ccc(N(C)C(=O)CN4CCN(C)CC4)cc3)c3ccccc3)c(O)[nH]c2c1 + C=CC(=O)N1CCN(c2nc(OCC3CCCN3C)nc3c2CCN(c2cccc4cccc(C)c24)C3)CC1CC#N ; yields the recorded call
Reply | active

Ask | // param item: COc1cc(Nc2ncc3c(n2)-c2ccc(Cl)cc2C(c2c(F)cccc2OC)=NC3)ccc1C(=O)O + COc1cc2nc(C)nc(NC(C)c3cc(N)cc(C(F)(F)F)c3)c2cc1OC1CCOC1 ; yields the recorded call
Reply | inactive

====

- System: 292921-168-R-J2-PDC KRAS tumor spheroid viability
- MEASUREMENT_DESCRIPTION: Anticancer human tumor 292921-168-R-J2-PDC cell line growth inhibition [KRAS2];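 further: drug exposure lasted seven days after spheroids formed for three days; percent of DMSO vehicle control viability which is 100%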
- CONDITION_SUMMARY: second compound 0.1 µM; first compound 3.16 µM; active compounds read low; spheroids with HUVEC and MSC
viability, T/C under 40% gets condition met, anything at or over 40% gets condition not met.

Recorded results for 5 compounds are shown here.
{"COMPOUND": "CC1(C)CCC(CN2CCN(c3ccc(C(=O)NS(=O)(=O)c4ccc(NCC5CCOCC5)c([N+](=O)[O-])c4)c(Oc4cnc5[nH]ccc5c4)c3)CC2)=C(c2ccc(Cl)cc2)C1 + C=CC(=O)N1CCN(c2nc(=O)n(-c3c(C)ccnc3C(C)C)c3nc(-c4c(O)cccc4F)c(F)cc23)C(C)C1", "LABEL": "condition met"}
{"COMPOUND": "CC1COCCN1c1cc(-c2ccnn2C)c2ccnc(-c3ccn[nH]3)c2n1 (stereo not given) + C=CC(=O)N1CCN(c2nc(=O)n(-c3c(C)ccnc3C(C)C)c3nc(-c4c(O)cccc4F)c(F)cc23)C(C)C1", "LABEL": "condition met"}
{"COMPOUND": "O=C(c1cc(Cc2n[nH]c(=O)c3ccccc23)ccc1F)N1CCN(C(=O)C2CC2)CC1 + C=CC(=O)N1CCN(c2nc(=O)n(-c3c(C)ccnc3C(C)C)c3nc(-c4c(O)cccc4F)c(F)cc23)C(C)C1", "LABEL": "condition not met"}
{"COMPOUND": "CC1OCC2(CCN(c3cnc(Sc4ccnc(N)c4Cl)c(N)n3)CC2)C1N (stereo not given) + C=CC(=O)N1CCN(c2nc(OCC3CCCN3C)nc3c2CCN(c2cccc4cccc(C)c24)C3)CC1CC#N", "LABEL": "condition met"}
{"COMPOUND": "CC(C)NCC(C(=O)N1CCN(c2ncnc3c2C(C)CC3O)CC1)c1ccc(Cl)cc1 (stereo not given) + CNCc1ccccc1-c1csc(C(C)Nc2nc(C)nc3cc(OC)c(OC)cc23)c1", "LABEL": "condition not met"}

Ask | Consider COc1cc2nccc(Oc3ccc(NC(=O)C4(C(=O)Nc5ccc(F)cc5)CC4)cc3)c2cc1OC + CC1OCC2(CCN(c3cnc(Sc4ccnc(N)c4Cl)c(N)n3)CC2)C1N . Does its viability, T/C lie strictly below 40%?
Reply | condition met

Ask | Consider CC1COCCN1c1cc(-c2ccnn2C)c2ccnc(-c3ccn[nH]3)c2n1 (stereo not given) + C=CC(=O)N1CCN(c2nc(OCC3CCCN3C)nc3c2CCN(c2cccc4cccc(C)c24)C3)CC1CC#N . Does its viability, T/C lie strictly below 40%?
Reply | condition met

Ask | Consider CC(=O)OC12COC1CC(O)C1(C)C(=O)C(O)C3=C(C)C(OC(=O)C(O)C(NC(=O)OC(C)(C)C)c4ccccc4)CC(O)(C(OC(=O)c4ccccc4)C21)C3(C)C (stereo not given) + CC1OCC2(CCN(c3cnc(Sc4ccnc(N)c4Cl)c(N)n3)CC2)C1N . Does its viability, T/C lie strictly below 40%?
Reply | condition met

Ask | Consider O=C(c1cc(Cc2n[nH]c(=O)c3ccccc23)ccc1F)N1CCN(C(=O)C2CC2)CC1 + CNCc1ccccc1-c1csc(C(C)Nc2nc(C)nc3cc(OC)c(OC)cc23)c1 . Does its viability, T/C lie strictly below 40%?
Reply | condition not met

====

- Test system: 292921-168-R-J2-PDC KRAS tumor spheroid viability
- MEASUREMENT_DESCRIPTION: Anticancer human tumor 292921-168-R-J2-PDC cell line growth inhibition [KRAS2];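 further: drug exposure lasted seven days after spheroids formed for three days; percent of DMSO vehicle control viability which is 100%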
- CONDITION_SUMMARY: second compound 0.316 µM; first compound 0.1 µM; active compounds read low; spheroids with HUVEC and MSC
viability, T/C under 20% gets 1 (yes), anything at or over 20% gets 0 (no).

{"COMPOUND": "COC(=O)c1ccc2c(C(=Nc3ccc(N(C)C(=O)CN4CCN(C)CC4)cc3)c3ccccc3)c(O)[nH]c2c1 + C=CC(=O)N1CCN(c2nc(=O)n(-c3c(C)ccnc3C(C)C)c3nc(-c4c(O)cccc4F)c(F)cc23)C(C)C1", "LABEL": "0 (no)"}
{"COMPOUND": "COc1cc(Nc2ncc3c(n2)-c2ccc(Cl)cc2C(c2c(F)cccc2OC)=NC3)ccc1C(=O)O + CNCc1ccccc1-c1csc(C(C)Nc2nc(C)nc3cc(OC)c(OC)cc23)c1", "LABEL": "0 (no)"}
{"COMPOUND": "CC(C)NCC(C(=O)N1CCN(c2ncnc3c2C(C)CC3O)CC1)c1ccc(Cl)cc1 (stereo not given) + COc1cc2nc(C)nc(NC(C)c3cc(N)cc(C(F)(F)F)c3)c2cc1OC1CCOC1", "LABEL": "0 (no)"}

Let's switch to this compound now.
Ask | Consider COc1cc(Nc2ncc3c(n2)-c2ccc(Cl)cc2C(c2c(F)cccc2OC)=NC3)ccc1C(=O)O + CC1OCC2(CCN(c3cnc(Sc4ccnc(N)c4Cl)c(N)n3)CC2)C1N . Does its viability, T/C lie strictly below 20%?
Reply | 1 (yes)
